FYI, the data here is from ChEMBL document CHEMBL5608182.

# EXPERIMENT_SUMMARY: Drug concentration in Sprague-Dawley rat brain at 24.4 micromol/kg, IG measured after 0.5 hrs by LC-MS/MS analysis
# Format: ADME, tissue-based
# TEST_CONDITIONS: in vivo, po, dose 24.4 µmol/kg
List of Ct values.
Answer with a number only, understood to be in nmol/kg.

Please look at this molecule and report its Ct: C[C@@]1(O)CC[C@H]2[C@H](CC[C@@H]3[C@@H]2CC[C@]2(C)[C@@H](C(=O)Cn4cnn(-c5cc(F)nc(F)c5)c4=O)CC[C@@H]32)C1 2320

Give the reported value of Ct for this record: C[C@@]1(O)CC[C@H]2[C@H](CC[C@@H]3[C@@H]2CC[C@]2(C)[C@@H](C(=O)Cn4cnn(-c5ccnc(F)c5)c4=O)CC[C@@H]32)C1 708

State its Ct: C[C@@]1(O)CC[C@H]2[C@H](CC[C@@H]3[C@@H]2CC[C@]2(C)[C@@H](C(=O)Cn4cc(C#N)cn4)CC[C@@H]32)C1 3103

Give the reported value of Ct for this record: C[C@@]1(O)CC[C@H]2[C@H](CC[C@@H]3[C@@H]2CC[C@]2(C)[C@@H](C(=O)Cn4nnn(-c5cccc(F)c5)c4=O)CC[C@@H]32)C1 948

Hello, please tell me recorded Ct for this one: C[C@@]1(O)CC[C@H]2[C@H](CC[C@@H]3[C@@H]2CC[C@]2(C)[C@@H](C(=O)Cn4cnn(-c5cccc(F)c5)c4=O)CC[C@@H]32)C1 1708

###

# EXPERIMENT_SUMMARY: Drug concentration in Sprague-Dawley rat brain at 24.4 micromol/kg, IG measured after 2 hrs by LC-MS/MS analysis
# Assay type: ADME, tissue-based
# TEST_CONDITIONS: in vivo, po, dose 24.4 µmol/kg
PARAMETER_MEASURED: Ct

Some solved cases for reference:
C[C@@]1(O)CC[C@H]2[C@H](CC[C@@H]3[C@@H]2CC[C@]2(C)[C@@H](C(=O)Cn4cnn(-c5cccc(F)c5)c4=O)CC[C@@H]32)C1 | 1530 nmol/kg
C[C@@]1(O)CC[C@H]2[C@H](CC[C@@H]3[C@@H]2CC[C@]2(C)[C@@H](C(=O)Cn4cnn(-c5ccnc(F)c5)c4=O)CC[C@@H]32)C1 | 1188 nmol/kg
C[C@@]1(O)CC[C@H]2[C@H](CC[C@@H]3[C@@H]2CC[C@]2(C)[C@@H](C(=O)Cn4cc(C#N)cn4)CC[C@@H]32)C1 | 2220 nmol/kg

Shift focus to the following entry.
# return recorded Ct for entry C[C@@]1(O)CC[C@H]2[C@H](CC[C@@H]3[C@@H]2CC[C@]2(C)[C@@H](C(=O)Cn4cnn(-c5cc(F)nc(F)c5)c4=O)CC[C@@H]32)C1 3404 nmol/kg

###

# MEASURED_TARGET: GABA-A receptor; alpha-1/beta-2/gamma-2 (Homo sapiens) (UniProt P14867+P47870+P18507)
# EXPERIMENT_SUMMARY: Positive allosteric modulation of synaptic alpha1beta2gamma2 GABA-A receptor (unknown origin) transfected in LTK cells assessed as potentiation of GABA-induced peak current amplitude by measuring maximal efficacy at 0.01 to 10 uM at -80 mV holding potential preincubated for 30 secs followed by GABA stimulation for 2 secs by Q-patch assay relative to control
# Assay type: cell-based
# TEST_CONDITIONS: filed as positive allosteric modulator, dose 0.01-10 µM, time 32.0 sec
Response field class: enum, chosen by comparing Emax against range A (below 600%), range B (600% to below 800%), range C (800% or more)

Use these answered entries as a reference point.
C[C@@]1(O)CC[C@H]2[C@H](CC[C@@H]3[C@@H]2CC[C@]2(C)[C@@H](C(=O)Cn4cnn(-c5cc(F)ccn5)c4=O)CC[C@@H]32)C1 | range A
C[C@@]1(O)CC[C@H]2[C@H](CC[C@@H]3[C@@H]2CC[C@]2(C)[C@@H](C(=O)Cn4cnn(-c5ccc(F)cc5F)c4=O)CC[C@@H]32)C1 | range B
CCn1ncn(CC(=O)[C@H]2CC[C@H]3[C@@H]4CC[C@@H]5C[C@](C)(O)CC[C@@H]5[C@H]4CC[C@]23C)c1=O | range B
C[C@@]1(O)CC[C@H]2[C@H](CC[C@@H]3[C@@H]2CC[C@]2(C)[C@@H](C(=O)Cn4cnn(CC5CC5)c4=O)CC[C@@H]32)C1 | range B
C[C@@]1(O)CC[C@H]2[C@H](CC[C@@H]3[C@@H]2CC[C@]2(C)[C@@H](C(=O)Cn4cnn(-c5ccccc5)c4=O)CC[C@@H]32)C1 | range A
C[C@@]1(O)CC[C@H]2[C@H](CC[C@@H]3[C@@H]2CC[C@]2(C)[C@@H](C(=O)Cn4cnn(-c5cccc(F)c5F)c4=O)CC[C@@H]32)C1 | range A
C[C@@]1(O)CC[C@H]2[C@H](CC[C@@H]3[C@@H]2CC[C@]2(C)[C@@H](C(=O)Cn4cnn(-c5ccccc5F)c4=O)CC[C@@H]32)C1 | range B
C[C@@]1(O)CC[C@H]2[C@H](CC[C@@H]3[C@@H]2CC[C@]2(C)[C@@H](C(=O)Cn4ncn(-c5cccc(F)c5)c4=O)CC[C@@H]32)C1 | range C

Entry C[C@@]1(O)CC[C@H]2[C@H](CC[C@@H]3[C@@H]2CC[C@]2(C)[C@@H](C(=O)Cn4cnn(-c5cccc(F)c5)c4=O)CC[C@@H]32)C1 belongs to which category? range A

Band for the recorded Emax of C[C@@]1(O)CC[C@H]2[C@H](CC[C@@H]3[C@@H]2CC[C@]2(C)[C@@H](C(=O)Cn4cc(C#N)cn4)CC[C@@H]32)C1 ? range C

Class? Entry: C[C@@]1(O)CC[C@H]2[C@H](CC[C@@H]3[C@@H]2CC[C@]2(C)[C@@H](C(=O)Cn4cnn(-c5ccnc(F)c5)c4=O)CC[C@@H]32)C1 range B

Exam item: assign C[C@@]1(O)CC[C@H]2[C@H](CC[C@@H]3[C@@H]2CC[C@]2(C)[C@@H](C(=O)Cn4cnn(-c5cccc(C#N)c5)c4=O)CC[C@@H]32)C1 to the correct category. range C

For the record C[C@@]1(O)CC[C@H]2[C@H](CC[C@@H]3[C@@H]2CC[C@]2(C)[C@@H](C(=O)Cn4cnn(-c5cccc(OC(F)(F)F)c5)c4=O)CC[C@@H]32)C1 , report the class its Emax corresponds to. range B

Note: place this compound into its band. Item: C[C@@]1(O)CC[C@H]2[C@H](CC[C@@H]3[C@@H]2CC[C@]2(C)[C@@H](C(=O)Cn4nnn(-c5cccc(F)c5)c4=O)CC[C@@H]32)C1 range C
